Source of measurements: patent US11596639B2

molecular target: Mcl-1 (Homo sapiens (Human)); test: Fluorescence polarization anisotropy (FPA) competition assay, FITC-Bak or FITC-Bim BH3 peptide; type: binding; conditions: read-out: Ki for Inhibition of Mcl-1 by FPA assay
Measured property: pKi
Remember, pKi is on a log scale: it is -log10 of the molar concentration.

Report pKi for Cc1cc(OCCCc2c3n(c4c(-c5c(C)nn(C)c5C)c(Cl)ccc24)[C@H](C)CN(c2cn(C)c4cc(Cl)c(C(=O)O)cc24)C3=O)cc(C)c1Cl [Example 365] please.
8.77

Fill blank: measured pKi of the molecule Cc1cc(OCCCc2c3n(c4c(-c5c(C)nn(C)c5C)c(Cl)ccc24)[C@H](C)CN(c2cccc4cc(C(=O)O)n(CC5CCO5)c24)C3=O)cc(C)c1Cl (some centres unmarked) [Example 374] is ____.
8.43

Reported pKi, molecule Cc1cc(OCCCc2c3n(c4c(-c5c(C)nn(C)c5C)c(Cl)ccc24)[C@H](C)CN(c2cn(C)c4ccc(-c5cnn(C)c5)cc24)C3=O)cc(C)c1Cl [Example 391] : ____
8.68

* * *

molecular target: UniProt:Q07820; experiment: Fluorescence polarization anisotropy (FPA) competition assay, FITC-Bak or FITC-Bim BH3 peptide; assay type: binding; conditions: read-out: Ki for Inhibition of Mcl-1 by FPA assay
Measured property: Ki (nM)
The answer is to be given in nM; state only the numeric part.

Which measured Ki value corresponds to Cc1cc(OCCCc2c3n(c4c(-c5c(C)nn(C)c5C)c(Cl)ccc24)CCCN(c2cc(C(=O)O)cc4c2cnn4C)C3=O)cc(C)c1Cl ?
1.7

Item Cc1cc(OCCCc2c3n(c4c(-c5c(C)nn(C)c5C)c(Cl)ccc24)[C@H](C)[C@@H](C)N(c2ccc(C(=O)O)cc2)C3=O)cc(C)c1Cl has what recorded Ki?
3.8

Entry Cc1cc(OCCCc2c3n(c4c(-c5c(C)nn(C)c5C)c(Cl)ccc24)[C@H](C)CN(c2cccc4cc5n(c24)CCNC5=O)C3=O)cc(C)c1Cl : reported Ki = ?
5.5

* * *

target: Mcl-1 (Homo sapiens (Human), UniProt Q07820); experiment: Fluorescence polarization anisotropy (FPA) competition assay, FITC-Bak or FITC-Bim BH3 peptide; assay type: binding; details: read-out: Ki for Inhibition of Mcl-1 by FPA assay
Sequence (Q07820 172-327): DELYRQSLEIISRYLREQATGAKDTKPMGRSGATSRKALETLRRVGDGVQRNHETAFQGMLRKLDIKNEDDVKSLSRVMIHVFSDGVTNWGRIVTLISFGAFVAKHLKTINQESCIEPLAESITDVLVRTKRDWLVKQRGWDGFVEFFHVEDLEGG
pKi: −log10 of the molar value.
Measured property: pKi

Entry CC(=O)N1CCN(c2cc(C(=O)O)cc(CN3CCCn4c(c(CCCOc5cc(C)c(Cl)c(C)c5)c5ccc(Cl)c(-c6c(C)nn(C)c6C)c54)C3=O)n2)CC1 , system Mcl-1 (Homo sapiens (Human), UniProt Q07820): what pKi was measured?
8.00

Checklist item: pKi tested on Mcl-1 (Homo sapiens (Human), UniProt Q07820), entry Cc1cc(N2C[C@@H](C)n3c(c(CCCOc4cc(C)c(Cl)c(C)c4)c4ccc(Cl)c(-c5c(C)nn(C)c5C)c43)C2=O)c2c(c1)cc(C(N)=O)n2C , value?
8.55

# get_value(readout= pKi, system= Mcl-1 (Homo sapiens (Human), UniProt Q07820)) for Cc1cc(OCCCc2c3n(c4c(-c5c(C)nn(C)c5C)c(Cl)ccc24)[C@H](C)CN(c2cc(O)cc4c2cc(C(=O)O)n4C)C3=O)cc(C)c1Cl [Example 303]
> 9.00

Hello, I am looking for reported pKi with Mcl-1 (Homo sapiens (Human), UniProt Q07820) for Cc1cc(OCCCc2c3n(c4c(-c5c(C)n[nH]c5C)c(Cl)ccc24)CCCN(c2cc(C(=O)O)c4ccn(C)c4c2)C3=O)cc(C)c1Cl . Could you help?
> 9.00

Record lookup: for Mcl-1 (Homo sapiens (Human), UniProt Q07820), what pKi belongs to Cc1cc(OCCCc2c3n(c4c(-c5c(C)nn(C)c5C)c(Cl)ccc24)[C@H](C)CN(c2cc(OCCN4CCN(C)CC4)cc4cc(C(=O)O)n(C)c24)C3=O)cc(C)c1Cl ?
8.77

Please provide the recorded pKi for Cc1cc(OCCCc2c3n(c4c(-c5c(C)nn(C)c5C)c(Cl)ccc24)[C@H](C)CN(c2ccc4c(c2)cc(C(=O)O)n4C)C3=O)cc(C)c1Cl , tested on Mcl-1 (Homo sapiens (Human), UniProt Q07820).
> 9.00

Checklist item: pKi tested on Mcl-1 (Homo sapiens (Human), UniProt Q07820), entry Cc1cc(OCCCc2c3n(c4c(-c5c(C)nn(CCN(C)C)c5C)c(Cl)ccc24)[C@H](C)CN(c2cn(C)c4cc(C(=O)O)ccc24)C3=O)cc(C)c1Cl , value?
> 9.00

So what pKi did COc1cc(C(=O)O)cc(N2CCCn3c(c(CCCOc4cc(C)c(Cl)c(C)c4)c4ccc(Cl)c(-c5c(C)nn(C)c5C)c43)C2=O)c1OCCCO get with Mcl-1 (Homo sapiens (Human), UniProt Q07820)?
> 9.00

What reported pKi corresponds to Cc1cc(OCCCc2c3n(c4c(-c5c(C)nn(CC(=O)O)c5C)c(Cl)ccc24)CCCN(c2ccccc2)C3=O)cc(C)c1Cl on Mcl-1 (Homo sapiens (Human), UniProt Q07820)?
> 9.00

Request body: readout pKi, system Mcl-1 (Homo sapiens (Human), UniProt Q07820), query Cc1cc(OCCCc2c3n(c4c(-c5c(C)nn(C)c5C)c(Cl)ccc24)[C@H](C)CN(c2cccc4cc(C(=O)O)cnc24)C3=O)cc(C)c1Cl . Return the value.
> 9.00

Item Cc1cc(OCCCc2c3n(c4c(-c5c(C)nn(C)c5C)c(Cl)ccc24)[C@H](C)CN(c2cn(C)c4c(C(=O)O)cccc24)C3=O)cc(C)c1Cl with Mcl-1 (Homo sapiens (Human), UniProt Q07820) - pKi?
> 9.00
